Assay target: erbB2 tyrosine kinase (Homo sapiens)
Construct: Recombinant intracellular fragments of EGFR, erbB2 and erbB4; made in house; host or cells: baculovirus/Sf21
Sequence (P04626 676-1255 limits assumed): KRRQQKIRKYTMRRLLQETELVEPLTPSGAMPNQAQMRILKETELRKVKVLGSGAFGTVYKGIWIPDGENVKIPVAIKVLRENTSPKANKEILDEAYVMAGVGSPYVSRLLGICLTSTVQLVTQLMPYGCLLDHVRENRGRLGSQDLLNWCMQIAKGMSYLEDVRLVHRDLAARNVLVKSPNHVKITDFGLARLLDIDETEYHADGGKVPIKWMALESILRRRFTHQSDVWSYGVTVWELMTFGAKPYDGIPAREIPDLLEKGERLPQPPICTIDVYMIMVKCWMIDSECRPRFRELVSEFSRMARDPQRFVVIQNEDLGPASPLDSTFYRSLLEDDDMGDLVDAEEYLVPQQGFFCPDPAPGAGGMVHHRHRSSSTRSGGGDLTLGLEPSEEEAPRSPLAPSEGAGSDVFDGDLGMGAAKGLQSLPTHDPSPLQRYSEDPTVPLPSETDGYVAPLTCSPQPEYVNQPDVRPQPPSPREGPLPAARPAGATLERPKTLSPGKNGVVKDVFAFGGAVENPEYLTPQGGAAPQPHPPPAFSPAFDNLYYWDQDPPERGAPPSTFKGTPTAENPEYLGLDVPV
Assay remarks: Protein tyrosine kinase phosphorylation assay, Test (a), erbB2
Format: biochemical
Test conditions: recombinant intracellular fragment, ATP at Km; read-out: IC50 (μM) Test (a): Inhibition of erbB2 tyrosine kinase protein phosphorylation
Endpoint label: IC50 (µM)

[[record]]
smiles_structure = "COc1cc2ncnc(Nc3cccc(Cl)c3F)c2cc1OC1CCN(CC(=O)N2CCN(C)CC2)CC1"
meas_value = 0.01


P = CNC(=O)CN1CCC(Oc2cc3c(Nc4ccc(F)c(Cl)c4F)ncnc3cc2OC)CC1
Q = COc1cc2ncnc(Nc3cccc(Cl)c3F)c2cc1OC1CCN(CC(=O)NCCN2CCCC2)CC1
Qu. Which gives the smaller IC50 number: P or Q ? Return value: the label identifying the chosen record.
Ans. Q
(Q: 0.013 µM, P: 0.047 µM)
